Test system: SK-MEL-5 melanoma
protocol-description: NCI tumour cell line growth inhibition, 48 h
readout-kind: TGI

Enquiry: TGI for CC(=O)O[C@H]1CC[C@@]2(C)C(=CC[C@H]3[C@@H]4CC[C@H](c5cc(C(F)(F)F)n(C(C)=O)n5)[C@@]4(C)CC[C@@H]32)C1 ?
Return: 15.3 µM

Enquiry: // query: COc1ccc(OC)c2c1CC(C(=O)O)(C(=O)O)CC2=O
Return: > 100 µM

Enquiry: Same thing, different molecule: CN(CCn1cnc2c1c(=O)n(C)c(=O)n2C)C1CCCCC1
Return: > 100 µM

---

Tested on: RPMI-8226 leukemia
protocol-description: NCI tumour cell line growth inhibition, 48 h
TGI values by entry
A number alone suffices; assume µM.

COC(=O)c1c(O)ccc2c1c1c(n2Cc2ccccc2Cl)C(=O)c2ccccc2C1=O ... 29.5
C=C1C(=O)O[C@H]2[C@H]1CC/C(COC(=O)CSCCSCC(=O)OC/C1=C/CC[C@@]3(C)O[C@H]3[C@H]3OC(=O)C(=C)[C@@H]3CC1)=C\CC[C@@]1(C)O[C@@H]21 ... 4.48
N/C(=N\S(=O)(=O)c1ccc(S(=O)(=O)c2ccccc2)s1)Nc1ccc(Cl)cc1 ... 88.7

Enquiry: Please tell me: TGI of CC[N+](CC)=c1sc2c(s1)C(c1ccc(Cl)cc1)Oc1ccc(Cl)cc1-2 (stereo not given) , system RPMI-8226 leukemia?
Return: 7.5

Enquiry: Thanks! And COC(=O)c1c2c(c[n+]([O-])c1C)C(=O)C=CC2=O ?
Return: 26.6

Enquiry: Again, but for O=S(=O)(CCBr)CCBr
Return: 12.1

Enquiry: Next record, please: C[N-]c1nnnn1C.[Au+].c1ccc([PH+](c2ccccc2)c2ccccc2)cc1
Return: 4.54

Enquiry: Also need N#CC1=C(N)n2c(s/c(=C\c3ccc(Cl)cc3)c2=O)=C(c2nc3ccccc3[nH]2)C1c1ccc(Cl)cc1 (stereo not given) , thanks.
Return: 4.65

Enquiry: Another compound: CCOC(=O)c1sc(-c2ccc(OS(=O)(=O)c3ccc(Br)s3)c(C=O)c2)nc1C
Return: 5.18

---

System: U251 CNS
Return exactly one item of active, inactive

C#CCOc1cccc(-c2ncnc3cc(NC(=O)CCl)ccc23)c1 ... active
COc1ccc(S(=O)(=O)N2CC(C)(C)CN(S(=O)(=O)c3ccc(OC)cc3)C2C(=O)NO)cc1 ... inactive

API: the following record is the query input.
Enquiry: Returns: the outcome recorded for COc1ccc2c(c1)C(=O)c1c-2n(CCCN=[N+]=[N-])c(=O)c2cc(OC)c(OC)cc12 in this assay.
Return: inactive

---

System: SF-539 CNS
protocol-description: NCI tumour cell line growth inhibition, 48 h; in the data active = GI50 below about 0.43 µM; inactive = the rest
Pick one: active, inactive

Reference set (4 entries):
CC(=O)[CH-]C(C)=O.CC(=O)[CH-]C(C)=O.[CH2-]CCC.[CH2-]CCC.[Sn+4] ... inactive
CCCNNC(=O)/C=C/c1ccc(CNCCc2c(C)[nH]c3ccccc23)cc1 ... active
CCOc1ccc2nc(SCc3nc4n(n3)S(=O)(=O)c3ccccc3N4C)sc2c1 ... inactive
COC(=O)c1c2c(c[n+]([O-])c1C)C(=O)C=CC2=O ... inactive

Continue with the next compound.
Enquiry: Outcome? COc1cc(-c2cc3ncccc3c3nc(N)c4cccnc4c23)cc(OC)c1OC
Return: active

---

System: OVCAR-3 ovarian
protocol-description: NCI tumour cell line growth inhibition, 48 h; in the data active means GI50 below about 0.43 µM; inactive means the rest
Please answer using one outcome listed in active, inactive

Before answering, review these 5 worked examples.
Cc1nn(-c2nc3ccccc3[nH]2)c(N)c1-c1ccc(Cl)cc1 ... inactive
CC(=O)[CH-]C(C)=O.CC(=O)[CH-]C(C)=O.[CH2-]CCC.[CH2-]CCC.[Sn+4] ... inactive
CNC(=O)c1ccc(N2CCN(Cc3ccc4nc(C)c(=O)[nH]c4c3F)CC2)c(F)n1 ... inactive
O=S(=O)(Nc1ccccc1Cl)c1ccc(-c2cnc(C3CC3)o2)cc1 ... active
COc1cc(NC(N)=NCCC(C)(C)Oc2ccc(C(F)(F)F)cc2)ncc1C#N ... inactive

Enquiry: Could you check what this test reported for COC(=O)CCc1c[nH]c2ccc(N(CCCl)CCCl)cc12 ?
Return: inactive

Enquiry: Quick one: CCC[CH2][Sn]1([CH2]CCC)[O]CC(Cc2ccccc2)[O]1 (configuration not stated)
Return: inactive

---

Test system: SF-295 CNS
protocol-description: NCI tumour cell line growth inhibition, 48 h
Recorded TGI for the following molecules

Field: example entries. Status: answers known.
[Cl][Hg][Cl] ... 31.9 µM
CCOC(=O)c1cc(-c2cc(OC)c(OC)c([N+](=O)[O-])c2)c([N+](=O)[O-])n1C ... > 10 µM
COC(=O)CCC(=O)NC1=C(NCc2ccccc2)C(=O)c2ccccc2C1=O ... > 100 µM

Enquiry: Value wanted: TGI (SF-295 CNS) of entry C=C1C(O)C2C(=C(CCc3ccccc3)C13CC3)C(=O)C(C)(CO)C2O (centres undefined)
Return: > 100 µM

Enquiry: What about CCCN1C(=O)CC(C)N(Cc2ccccc2Cl)C1=S (centres undefined) ?
Return: > 100 µM

Enquiry: Lookup C#Cc1cccc(N2C(=O)CCC2=O)c1
Return: 30.1 µM

---

Test system: BT-549 breast
protocol-description: NCI tumour cell line growth inhibition, 48 h
Classification scheme (TGI): category 1 = under 4 µM, category 2 = from 4 µM up to 40 µM, category 3 = 40 µM and over

Examples with answers:
CC[C@H](O)[C@H](C)C=C1SCCCS1 ... category 3
CCc1cccc(C)c1NC(=O)c1sc2nc3c(cc2c1N)CCCCC3 ... category 3
Nc1ccccc1C(=O)CC1OC(=O)c2ccccc21 (stereo not given) ... category 3

Enquiry: Where would CCCCc1ccc(Nc2nc3c(ncn3C3CC(O)C(CN=[N+]=[N-])O3)c(=O)[nH]2)cc1 (stereo not given) land among the classes by reported TGI?
Return: category 3

Enquiry: Can you check CCC[CH2][Sn]([CH2]CCC)([CH2]CCC)[O]c1ccc(Cl)cc1Cl next?
Return: category 1

Enquiry: Next molecule: CCCNNC(=O)/C=C/c1ccc(CNCCc2c(C)[nH]c3ccccc23)cc1
Return: category 2

Enquiry: Same again, this time with N/C(=N\S(=O)(=O)c1ccc(S(=O)(=O)c2ccccc2)s1)Nc1ccc(Cl)cc1
Return: category 3

Enquiry: Record: CCOC(=O)c1ccc(Nc2c3c(nc4ccccc24)CCCC3)cc1
Return: category 3

Enquiry: Same thing, different molecule: CCCCC(=O)NS(=NC(=O)c1ccccc1)C(Cl)(Cl)Cl (stereo not given)
Return: category 3

Enquiry: Try this molecule too: CCOc1ccc2nc(SCc3nc4n(n3)S(=O)(=O)c3ccccc3N4C)sc2c1
Return: category 3

Enquiry: Next molecule: CCCSc1ccc2[nH]c(N3C(=O)/C(=C/c4ccco4)N=C3c3ccccc3)cc2c1
Return: category 3

Enquiry: Another: Clc1nc(Cl)c2ncn(Cc3cccc(Cn4cnc5c(Cl)nc(Cl)nc54)c3)c2n1
Return: category 2

Enquiry: Record: C=C1C(=O)O[C@H]2[C@H]1CC/C(COC(=O)CSCCSCC(=O)OC/C1=C/CC[C@@]3(C)O[C@H]3[C@H]3OC(=O)C(=C)[C@@H]3CC1)=C\CC[C@@]1(C)O[C@@H]21
Return: category 1

Enquiry: // query: C=C1C(O)C2C(=C(CCc3ccccc3)C13CC3)C(=O)C(C)(CO)C2O (stereo not given)
Return: category 3

---

Below, each entry is listed alongside its reported TGI.
Test system: SK-OV-3 ovarian
protocol-description: NCI tumour cell line growth inhibition, 48 h
// note: answer is a bare numeric in µM

COc1ccc2c(CN3CCCCC3CO)cc3cc(OC)c(OC)cc3c2c1 (stereo not given) ... 70.2

Consider the record given below.
Enquiry: So what's the measured TGI for this one? C=C1C(=O)O[C@@H]2C[C@@H](C)[C@@H]3C=CC(=O)[C@@]3(C)[C@@H](OC(=O)CC(=O)O[C@H]3[C@@H]4C(=C)C(=O)O[C@@H]4C[C@@H](C)[C@@H]4C=CC(=O)[C@]43C)[C@H]12
Return: 0.785

---

log10 of TGI values for the molecules below.
Tested on: COLO 205 colon
protocol-description: NCI tumour cell line growth inhibition, 48 h
Note the log scale: values are log10 of TGI expressed in µM.

Worked set:
CC(=O)[CH-]C(C)=O.CC(=O)[CH-]C(C)=O.[CH2-]CCC.[CH2-]CCC.[Sn+4] ... 0.02
N#CC1=C(N)n2c(s/c(=C\c3ccc(Cl)cc3)c2=O)=C(c2nc3ccccc3[nH]2)C1c1ccc(Cl)cc1 (stereo not given) ... 0.80
N/C(=N\S(=O)(=O)c1ccc(S(=O)(=O)c2ccccc2)s1)Nc1ccc(Cl)cc1 ... 1.60
CCCN1C(=O)CC(C)N(Cc2ccccc2Cl)C1=S (stereo not given) ... 1.52
C#CCOc1cccc(-c2ncnc3cc(NC(=O)CCl)ccc23)c1 ... 0.44
O=C(CO[N+](=O)[O-])Nc1ccc(C(=O)/C=C/c2ccc(Cl)cc2)cc1 ... 0.78
COc1ccc(-c2cn[nH]c2-c2cc(OC)c3c(c2)OCO3)cc1 ... -0.11
CCC[CH2][Sn]1([CH2]CCC)[O]CC(Cc2ccccc2)[O]1 (stereo not given) ... 0.76

Enquiry: Field: log10 of TGI (COLO 205 colon). Entry: O=C(/C=C/c1ccc(O)c(O)c1)OCCCc1ccccc1
Return: 1.43

Enquiry: One more molecule: CC[N+](CC)=c1sc2c(s1)C(c1ccc(Cl)cc1)Oc1ccc(Cl)cc1-2 (stereo not given)
Return: 0.58

Enquiry: Now consider COc1ccc2c(C)cc(N/N=C/c3ccc(OC)c4ccccc34)nc2c1 and answer again.
Return: 1.62

The reported measurements were obtained from PubChem BioAssay (NCI).
